Taken from PubChem BioAssay.

- Measurement Protocol: drug combination growth inhibition, ovarian cancer – cell-based, oncology-focused library, rucaparib conditional, profiling panel (AID 1508598)
- Condition Parameters: patient-derived ovarian cancer cells, CellTiter-Glo viability, 144 h; at 0.00488 µM; OCI-C5x cells; without rucaparib; stronger effect = lower value
Reported Metric: viability (%)
Numbers only, in %.

Reference set, count: 3
• C=CC(=O)Nc1cccc(Oc2nc(Nc3ccc(N4CCN(C)CC4)cc3OC)ncc2Cl)c1 = 118
• CC1(O)CC(c2nc(-c3ccc4ccc(-c5ccccc5)nc4c3)c3c(N)nccn23)C1 (stereo not given) = 124
• CS(=O)(=O)N1CCc2c(-c3cnc(N)nc3)nc(N3CCOCC3)nc21 = 111

Give measured viability for every item shown.
1. N#CCNC(=O)c1ccc(-c2ccnc(Nc3ccc(N4CCOCC4)cc3)n2)cc1
2. Cc1ccc(C(=O)N(CCCN)[C@@H](c2nc3cc(Cl)ccc3c(=O)n2Cc2ccccc2)C(C)C)cc1
3. CC(C)(C)Cn1c(N)nc2ccc(-c3[nH]c(C(C)(C)C)nc3-c3ccc(F)cc3)nc21
4. CN1CCN(c2ccc3nc(-c4c(N)c5c(F)cccc5[nH]c4=O)[nH]c3c2)CC1
5. Cn1cc(CNCC2CCN(c3ncc(C(=O)NO)cn3)CC2)c2ccccc21

[117, 76.6, 121, 115, 138]

# map each compound to its viability
1. O=C(NCCCNc1nc(Nc2cccc(NC(=O)N3CCCC3)c2)ncc1I)c1cccs1
2. CC(C)n1nc(-c2ccc3oc(N)nc3c2)c2c(N)ncnc21

1: 97.8; 2: 123

###

- Measurement Protocol: viability loss in pontine glioma line – cell-based, SU-DIPG-XVII, MIPE5.0, CellTiter-Glo, qHTS, dose response (AID 1347060);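 as to AC50: cells exposed to compound for 48 hours before viability readout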
- Condition Parameters: CellTiter-Glo ATP luminescence
Records with an inconclusive call do not appear. Activity calls are given as the source filed them. No cut-off is given here; in the data, nearly all actives have AC50 up to about 26 µM.
I would appreciate it if you answered using one of these outcomes: active, inactive

- CCC(=C/[C@H](C)C/C=C/C(C)=C/[C@@H](C)C(=O)[C@@H](C)[C@H](O)[C@@H](C)C/C(C)=C/C(=O)O)/C=C/[C@@H]1OC(=O)C=C[C@@H]1C: active
- CCc1cc(C(N)=O)ccc1-n1nc(C(C)C)c2c(-n3cnc(-c4cnn(C)c4)c3)ccnc21: active
- CN1CCN(Cc2ccc(Nc3ncc(Cl)c(Nc4ccccc4S(=O)(=O)N(C)C)n3)cc2)CC1: active
- Fc1ccc(-c2csc3ncnc(NCc4ccc5c(c4)OCO5)c23)cc1: active
- O=C1OC2(CCC(C(=O)Nc3ccn(-c4ccccc4F)n3)CC2)c2cnccc21 (centres undefined): inactive

Entry COc1ccccc1-c1cccc(-c2c(O)c3cc(C#N)c(Cl)cc3[nH]c2=O)c1 : call = ? inactive

Could you please tell me the result logged for CCOc1cc(/C=C2/C(=O)N(c3ccccc3)N=C2C)cc(Cl)c1OCC(=O)OC in this assay? inactive

Please share the test call associated with CC(C)N(C[C@H]1O[C@@H](n2cnc3c(N)ncnc32)[C@H](O)[C@@H]1O)C1CC(CCc2nc3ccc(C(C)(C)C)cc3[nH]2)C1 (some centres undefined) . inactive

// param item: COc1cc2ncnc(Nc3cccc(Br)c3)c2cc1OC ; yields the recorded call active

###

- Measurement Protocol: growth inhibition of DIPG cells – cell-based, MIPE4.0 library, CellTiter-Glo luminescence, qHTS (AID 1347066);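 also: cells exposed to compound for 48 hours before readout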
- Condition Parameters: SU-DIPG-VI viability, CellTiter-Glo ATP luminescence
Results filed as inconclusive are left out. The source made the active and inactive calls. No cut-off is given here; in the data, nearly all actives have AC50 up to about 30 µM.
Valid outcomes are listed here; reply with one: label 1 for active, label 0 for inactive

Check out these entries, answers already filled in.
* CCC(CC)[C@H](NC(C)=O)[C@@H]1[C@H](O)[C@@H](C(=O)O)C[C@H]1N=C(N)N | label 0
* O=C(Nc1ccccc1)Nc1ccc(-c2ccc(C(=O)[C@@H]3CCC[C@H]3C(=O)O)cc2)cc1 | label 0
* CCC(=O)N[C@H]1CC[C@H](C(=O)N(C)c2ccc(-c3nc4ccccc4o3)cc2)C1 | label 0
* C1=C/COCc2cc(ccc2OCCN2CCCC2)Nc2nccc(n2)-c2cccc(c2)OCC/1 | label 1

Field: next molecule
// return assay outcome for Clc1ccc(C(c2ccc(Cl)cc2)n2cc[n+](CC(OCc3ccc(Cl)cc3Cl)c3ccc(Cl)cc3Cl)c2)cc1 (stereo not given) label 1
